Each entry below carries its reported collision cross section in nitrogen.
Test: collision cross section in nitrogen (drift tube, single-field); higher = larger gas-phase ion size;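 further: chemical standards at 10 µM analysed by drift tube IMS-QTOF MS in about 3.95 torr nitrogen, mean of duplicate injections differing ≤1%, mass error below 10 ppm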
Conditions: ion type: [M+Na]; ion source: ESI; ion mode: Positive
Counter-ions that a name gives are not always drawn.
Form entry: value (Å²) — number only.

# compound, collision cross section in nitrogen (Å²)
records = [
    ("CCOc1ccc2[nH]cc(C(=O)NCc3ccccc3)c(=O)c2n1", 187),
    ("OC[C@H]1O[C@@H]2O[C@H]3[C@H](O)[C@@H](O)[C@@H](O[C@H]4[C@H](O)[C@@H](O)[C@@H](O[C@H]5[C@H](O)[C@@H](O)[C@@H](O[C@H]6[C@H](O)[C@@H](O)[C@@H](O[C@H]7[C@H](O)[C@@H](O)[C@@H](O[C@H]8[C@H](O)[C@@H](O)[C@@H](O[C@H]9[C@H](O)[C@@H](O)[C@@H](O[C@H]1[C@H](O)[C@H]2O)O[C@@H]9CO)O[C@@H]8CO)O[C@@H]7CO)O[C@@H]6CO)O[C@@H]5CO)O[C@@H]4CO)O[C@@H]3CO", 318.1),
    ("CC(Cc1ccc(OCC(=O)O)cc1)NCC(O)c1csc(C(F)(F)F)n1 (stereo not drawn)", 181.2),
    ("COCCOCCOCCOCCOCCO", 153.3),
    ("CCCCNC(=O)NCCCC", 164.2),
    ("COc1cccc2c1C(=O)c1c(O)c3c(c(O)c1C2=O)C[C@@](O)(C(=O)CO)C[C@@H]3O[C@H]1C[C@H](N)[C@H](O)[C@H](C)O1 [Doxorubicin hydrochloride]", 232.8),
    ("CC(C)OC(=O)c1ccccc1C(=O)OC(C)C [Diisopropyl phthalate]", 169.9),
    ("N=C(NCCCCCCNC(=N)NC(=N)Nc1ccc(Cl)cc1)NC(=N)Nc1ccc(Cl)cc1 [Chlorhexidine diacetate]", 228.3),
    ("CC(C)(C)C(O)(CCc1ccc(Cl)cc1)Cn1cncn1 (stereo not drawn)", 172.5),
    ("CCOP(=O)(N=C1SCCS1)OCC", 165.3),
]

Problem: Field request: collision cross section in nitrogen | item: CCOP(=O)(SC(C)CC)N1CCSC1=O (stereo not drawn) [Fosthiazate]
Solution: 168.2
